B1: PPFIA4 (parent)
chain: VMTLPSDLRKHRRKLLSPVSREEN

variants of: B1; assay: protein stability index of a GFP-peptide fusion (GPS, HEK-293T) (PSI 1-6); higher = more stable; conditions: c terminus: a fixed tail appended;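 also: lentivirally expressed fusions sorted by FACS into six bins by GFP to DsRed ratio, PSI derived from sequencing read proportions per bin multiplied by bin number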
What protein stability index was measured for each of the following?
Give only the figure.

Enquiry: Quick one: protein stability index for L8Y ?
Return: 3.24

Enquiry: Moving on to K10Y
Return: 2.76

Enquiry: Moving on to P5M
Return: 2.47

Enquiry: Moving on to S6N
Return: 3.51

Enquiry: Moving on to L16Y
Return: 3.85

Enquiry: Moving on to D7N
Return: 3.39

Enquiry: Moving on to V1H
Return: 4.25

Enquiry: Moving on to R12I
Return: 3.51

Enquiry: Moving on to R12A
Return: 3.66

Enquiry: Moving on to S6L
Return: 3.38

Enquiry: Moving on to E23N
Return: 3.14

Enquiry: Moving on to R13M
Return: 3.12

Enquiry: Moving on to E23R
Return: 3.06

Enquiry: Moving on to K14S
Return: 3.79

Enquiry: Moving on to K14M
Return: 3.65

Enquiry: Moving on to R13F
Return: 2.89

Enquiry: Moving on to V19E
Return: 4.21

Enquiry: Moving on to L15K
Return: 3.94

Enquiry: Moving on to R12S
Return: 4.12

Enquiry: Moving on to R13A
Return: 4.11

Enquiry: Moving on to R12E
Return: 4.58

Enquiry: Moving on to L15D
Return: 4.63

Enquiry: Moving on to R12F
Return: 3.36

Enquiry: Moving on to E23W
Return: 2.44

Enquiry: Moving on to E22H
Return: 3.52

Enquiry: Moving on to K14V
Return: 3.13

Enquiry: Moving on to R13E
Return: 4.59

Enquiry: Moving on to M2P
Return: 3.93

Enquiry: Moving on to E23Q
Return: 2.96

Enquiry: Moving on to L8D
Return: 4.28

Enquiry: Moving on to S17A
Return: 4.24

Enquiry: Moving on to S6F
Return: 3.57

Enquiry: Moving on to R21Y
Return: 3.34

Enquiry: Moving on to S20E
Return: 4.26

Enquiry: Moving on to D7H
Return: 3.15

Enquiry: Moving on to S20K
Return: 3.92

Enquiry: Moving on to L8M
Return: 4.01

Enquiry: Moving on to V19M
Return: 2.98

Enquiry: Moving on to L16Q
Return: 3.75

Enquiry: Moving on to L4D
Return: 4.14

Enquiry: Moving on to T3V
Return: 2.95

Enquiry: Moving on to E22N
Return: 3.27

Enquiry: Moving on to S20Q
Return: 4.17

Enquiry: Moving on to L8E
Return: 4.35

Enquiry: Moving on to P5D
Return: 4.37

Enquiry: Moving on to K14T
Return: 4.01

Enquiry: Moving on to S6C
Return: 3.6

Enquiry: Moving on to P5Y
Return: 2.7

Enquiry: Moving on to L15G
Return: 4.39

Enquiry: Moving on to V1R
Return: 4.59

Enquiry: Moving on to M2L
Return: 3.48

Enquiry: Moving on to P5C
Return: 2.63

Enquiry: Moving on to R9P
Return: 4.44

Enquiry: Moving on to R9W
Return: 3.49

Enquiry: Moving on to R12M
Return: 3.47

Enquiry: Moving on to T3G
Return: 3.99

Enquiry: Moving on to L16V
Return: 3.84

Enquiry: Moving on to L16T
Return: 4.31

Enquiry: Moving on to L16M
Return: 4.07

Enquiry: Moving on to P5H
Return: 2.67

Enquiry: Moving on to T3D
Return: 4.12

Enquiry: Moving on to V1S
Return: 4.27

Enquiry: Moving on to E22A
Return: 3.12

Enquiry: Moving on to M2D
Return: 4.71

Enquiry: Moving on to P18A
Return: 4.42

Enquiry: Moving on to R13I
Return: 3.47

Enquiry: Moving on to E23G
Return: 2.94

Enquiry: Moving on to S20A
Return: 3.98

Enquiry: Moving on to T3M
Return: 2.31

Enquiry: Moving on to L4H
Return: 4.08

Enquiry: Moving on to S6D
Return: 4.02

Enquiry: Moving on to K10A
Return: 4.32

Enquiry: Moving on to R21A
Return: 4.18

Enquiry: Moving on to R12N
Return: 4.14

Enquiry: Moving on to S20C
Return: 2.69

Enquiry: Moving on to T3H
Return: 3.52

Enquiry: Moving on to H11P
Return: 4.4

Enquiry: Moving on to L15I
Return: 3.9

Enquiry: Moving on to N24T
Return: 3.73

Enquiry: Moving on to K10G
Return: 3.87

Enquiry: Moving on to K14L
Return: 3.48

Enquiry: Moving on to E23M
Return: 3.29

Enquiry: Moving on to R21K
Return: 4.44

Enquiry: Moving on to L8R
Return: 4.15

Enquiry: Moving on to H11M
Return: 3.49

Enquiry: Moving on to V19D
Return: 4.57

Enquiry: Moving on to K10L
Return: 3.43

Enquiry: Moving on to N24V
Return: 3.27

Enquiry: Moving on to S17M
Return: 3.48

Enquiry: Moving on to V1W
Return: 2.66

Enquiry: Moving on to S17P
Return: 4.17
